// reported IC50 for each item listed
Molecular target: human recombinant MLK3 protein (Homo sapiens, UniProt Q16584)
Sequence (Q16584 whole entry): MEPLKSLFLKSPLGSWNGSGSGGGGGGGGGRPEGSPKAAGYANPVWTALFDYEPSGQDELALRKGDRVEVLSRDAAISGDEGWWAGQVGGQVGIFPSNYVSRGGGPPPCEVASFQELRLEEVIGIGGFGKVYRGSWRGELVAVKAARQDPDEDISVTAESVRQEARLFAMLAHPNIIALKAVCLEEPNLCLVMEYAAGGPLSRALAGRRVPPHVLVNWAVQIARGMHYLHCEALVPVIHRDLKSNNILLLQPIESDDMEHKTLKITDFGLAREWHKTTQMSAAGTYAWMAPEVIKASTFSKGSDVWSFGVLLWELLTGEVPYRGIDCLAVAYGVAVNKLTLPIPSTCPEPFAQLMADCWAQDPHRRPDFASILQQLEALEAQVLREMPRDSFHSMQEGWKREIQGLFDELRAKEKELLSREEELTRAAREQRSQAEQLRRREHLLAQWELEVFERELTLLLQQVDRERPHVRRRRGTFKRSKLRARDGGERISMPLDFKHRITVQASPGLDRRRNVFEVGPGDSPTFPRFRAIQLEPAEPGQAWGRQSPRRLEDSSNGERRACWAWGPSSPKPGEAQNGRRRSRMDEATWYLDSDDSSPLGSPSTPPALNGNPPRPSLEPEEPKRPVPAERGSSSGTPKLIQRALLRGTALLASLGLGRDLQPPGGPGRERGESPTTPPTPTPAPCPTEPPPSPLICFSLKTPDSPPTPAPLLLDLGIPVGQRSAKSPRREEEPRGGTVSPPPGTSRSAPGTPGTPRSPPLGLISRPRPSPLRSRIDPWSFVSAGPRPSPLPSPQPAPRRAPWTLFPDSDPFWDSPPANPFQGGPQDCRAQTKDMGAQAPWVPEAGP
Test: MLK3 kinase activity assay (Eurofins, gamma-33P-ATP, filtermat scintillation counting)
Conditions: human recombinant MLK3, 120 minutes at room temperature
Reported endpoint: IC50

CP(C)(=O)c1ccccc1Nc1nc(NC2CCCCC2)ncc1Cl	> 1000 nM
Cc1cccc2sc(Nc3ncc(Cl)c(Nc4ccccc4P(C)(C)=O)n3)nc12	100 to 1000 nM
Cc1ccc(Nc2ncc(Cl)c(Nc3ccccc3P(C)(C)=O)n2)c2[nH]cc(C#N)c12	10 to 100 nM
CP(C)(=O)c1ccccc1Nc1nc(Nc2ccc3[nH]nc(C4=CCNCC4)c3c2)ncc1Cl	1 to 10 nM

* * *

Molecular target: human recombinant MLK3 protein (Homo sapiens, UniProt Q16584)
Assay: MLK3 kinase activity assay (Eurofins, gamma-33P-ATP, filtermat scintillation counting)
Details: human recombinant MLK3, 120 minutes at room temperature
Reported endpoint: IC50

CC(C)C1c2cc(Nc3ncc(F)c(NC4CCN(S(C)(=O)=O)CC4)n3)ccc2CCN1C(=O)C(F)(F)F (centres unmarked) [compound 58]	> 1000 nM
Cc1nc2ccc(Nc3ncc(Cl)c(Nc4ccccc4P(C)(C)=O)n3)cc2s1 [compound 17]	1 to 10 nM
CC(C)C1c2cc(Nc3ncc(Cl)c(Nc4ccccc4P(C)(C)=O)n3)ccc2CCN1C(=O)C(F)(F)F (centres unmarked) [compound 53]	1 to 10 nM
CP(C)(=O)c1ccccc1Nc1nc(Nc2ccc3[nH]nc(-c4ccc(F)c(Cl)c4)c3c2)ncc1Cl [compound 107]	1 to 10 nM
CP(C)(=O)c1ccccc1Nc1nc(Nc2ccc3[nH]nc(-c4ccc(O)cc4)c3c2)ncc1Cl [compound 108]	1 to 10 nM
CC1c2cc(Nc3ncc(Cl)c(Nc4ccccc4P(C)(C)=O)n3)ccc2CCN1C(=O)C(F)(F)F (centres unmarked) [compound 54]	1 to 10 nM
CP(C)(=O)c1ccccc1Nc1nc(Nc2ccc3c(c2)C(=O)NCC3)ncc1Cl [compound 41]	1 to 10 nM
CP(C)(=O)c1ccccc1Nc1nc(NCc2ccc(F)cc2)ncc1Cl [compound 12]	> 1000 nM

* * *

Below: a set of entries, each annotated with reported pIC50.
Molecular target: human recombinant LRRK2 protein (Homo sapiens)
Sequence (Q5S007 whole entry): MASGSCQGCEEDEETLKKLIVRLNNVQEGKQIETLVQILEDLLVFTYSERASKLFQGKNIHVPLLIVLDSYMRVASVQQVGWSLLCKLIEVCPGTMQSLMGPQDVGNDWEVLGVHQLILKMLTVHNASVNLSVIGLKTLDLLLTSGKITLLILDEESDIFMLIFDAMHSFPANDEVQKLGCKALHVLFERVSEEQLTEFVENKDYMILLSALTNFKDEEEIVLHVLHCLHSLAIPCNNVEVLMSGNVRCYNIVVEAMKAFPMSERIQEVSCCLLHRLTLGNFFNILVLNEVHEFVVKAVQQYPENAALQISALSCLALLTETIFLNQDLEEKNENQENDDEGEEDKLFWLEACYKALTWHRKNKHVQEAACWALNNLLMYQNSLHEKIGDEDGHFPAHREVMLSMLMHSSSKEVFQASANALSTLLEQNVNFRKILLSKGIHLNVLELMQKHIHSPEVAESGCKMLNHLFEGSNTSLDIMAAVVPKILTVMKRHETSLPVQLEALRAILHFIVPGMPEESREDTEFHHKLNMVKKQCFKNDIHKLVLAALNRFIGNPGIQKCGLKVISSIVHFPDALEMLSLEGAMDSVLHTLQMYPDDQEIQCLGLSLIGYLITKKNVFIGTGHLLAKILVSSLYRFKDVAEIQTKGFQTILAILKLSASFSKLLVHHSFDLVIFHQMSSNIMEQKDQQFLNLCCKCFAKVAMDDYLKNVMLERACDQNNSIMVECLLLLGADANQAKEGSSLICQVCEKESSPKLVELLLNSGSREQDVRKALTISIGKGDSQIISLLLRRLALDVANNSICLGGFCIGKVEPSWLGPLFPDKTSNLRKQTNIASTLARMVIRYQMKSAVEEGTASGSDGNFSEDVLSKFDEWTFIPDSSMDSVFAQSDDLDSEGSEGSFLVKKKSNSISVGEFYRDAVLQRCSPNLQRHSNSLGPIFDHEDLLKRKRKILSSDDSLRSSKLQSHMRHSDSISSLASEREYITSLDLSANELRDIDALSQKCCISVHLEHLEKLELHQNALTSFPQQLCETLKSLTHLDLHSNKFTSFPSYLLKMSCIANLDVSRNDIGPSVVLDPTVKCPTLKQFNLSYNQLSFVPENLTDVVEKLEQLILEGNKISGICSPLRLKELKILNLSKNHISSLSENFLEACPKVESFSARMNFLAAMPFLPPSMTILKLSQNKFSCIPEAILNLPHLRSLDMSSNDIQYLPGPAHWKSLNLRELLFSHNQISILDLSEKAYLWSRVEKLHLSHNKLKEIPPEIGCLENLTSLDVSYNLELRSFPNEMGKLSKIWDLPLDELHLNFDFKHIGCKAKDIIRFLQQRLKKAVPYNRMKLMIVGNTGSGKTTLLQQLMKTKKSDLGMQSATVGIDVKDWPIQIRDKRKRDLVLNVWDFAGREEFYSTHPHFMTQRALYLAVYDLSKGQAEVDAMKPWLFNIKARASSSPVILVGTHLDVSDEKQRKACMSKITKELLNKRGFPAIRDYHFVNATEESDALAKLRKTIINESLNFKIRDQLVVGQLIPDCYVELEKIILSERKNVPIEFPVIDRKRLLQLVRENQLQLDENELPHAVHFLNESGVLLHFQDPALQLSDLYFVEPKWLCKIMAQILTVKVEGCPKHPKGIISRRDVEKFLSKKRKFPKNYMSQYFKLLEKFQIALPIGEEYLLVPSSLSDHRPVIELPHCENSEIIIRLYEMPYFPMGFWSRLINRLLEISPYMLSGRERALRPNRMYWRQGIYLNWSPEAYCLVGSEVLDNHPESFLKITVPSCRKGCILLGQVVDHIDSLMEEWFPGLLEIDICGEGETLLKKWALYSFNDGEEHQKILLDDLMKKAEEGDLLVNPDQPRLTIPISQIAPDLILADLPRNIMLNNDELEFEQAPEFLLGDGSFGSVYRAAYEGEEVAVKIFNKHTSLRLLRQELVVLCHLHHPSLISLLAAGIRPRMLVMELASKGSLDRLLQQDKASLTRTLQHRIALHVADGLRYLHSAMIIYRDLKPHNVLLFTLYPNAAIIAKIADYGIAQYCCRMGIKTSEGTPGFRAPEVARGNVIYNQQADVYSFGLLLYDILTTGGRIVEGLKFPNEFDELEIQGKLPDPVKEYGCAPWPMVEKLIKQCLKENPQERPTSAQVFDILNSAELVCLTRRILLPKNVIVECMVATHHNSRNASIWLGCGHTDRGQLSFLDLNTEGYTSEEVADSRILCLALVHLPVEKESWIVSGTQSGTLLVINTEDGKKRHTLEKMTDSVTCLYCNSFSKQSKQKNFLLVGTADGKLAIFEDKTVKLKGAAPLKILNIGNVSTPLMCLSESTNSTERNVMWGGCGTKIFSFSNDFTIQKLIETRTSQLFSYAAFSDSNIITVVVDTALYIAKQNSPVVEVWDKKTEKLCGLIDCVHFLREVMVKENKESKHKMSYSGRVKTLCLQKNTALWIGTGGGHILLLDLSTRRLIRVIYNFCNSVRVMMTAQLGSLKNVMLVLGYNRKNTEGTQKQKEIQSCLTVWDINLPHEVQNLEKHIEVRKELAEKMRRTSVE
Assay: LRRK2 kinase activity assay (Eurofins, gamma-33P-ATP, filtermat scintillation counting)
Conditions: human recombinant LRRK2, 40 minutes at room temperature
pIC50: −log10 of the molar value.
Reported endpoint: pIC50

CP(C)(=O)c1ccccc1Nc1nc(Nc2ccc3[nH]nc(-c4ccc(F)c(Cl)c4)c3c2)ncc1Cl	8.00 to 9.00
Cc1ccc(Nc2ncc(Cl)c(Nc3ccccc3P(C)(C)=O)n2)c2[nH]cc(C#N)c12	8.00 to 9.00
CP(C)(=O)c1ccccc1Nc1nc(Nc2ccc3[nH]nc(-c4cccc(O)c4)c3c2)ncc1Cl	7.00 to 8.00
CP(C)(=O)c1ccccc1Nc1nc(Nc2ccc3[nH]nc(-c4cccnc4F)c3c2)ncc1Cl	8.00 to 9.00
CP(C)(=O)c1ccccc1Nc1nc(NCc2ccccc2)ncc1Cl	< 6.00
CP(C)(=O)c1ccccc1Nc1nc(Nc2ccc3[nH]nc(Br)c3c2)ncc1Cl	8.00 to 9.00
CP(C)(=O)c1ccccc1Nc1nc(Nc2ccc3[nH]ncc3c2)ncc1Cl	8.00 to 9.00
CC(=O)N1CC=C(c2n[nH]c3ccc(Nc4ncc(Cl)c(Nc5ccccc5P(C)(C)=O)n4)cc23)CC1	8.00 to 9.00
CC(=O)c1ccc(-c2n[nH]c3ccc(Nc4ncc(Cl)c(Nc5ccccc5P(C)(C)=O)n4)cc23)cc1	7.00 to 8.00
CP(C)(=O)c1ccccc1Nc1nc(Nc2ccc3cn[nH]c3c2)ncc1Cl	8.00 to 9.00
Cc1cc2cc(Nc3ncc(Cl)c(Nc4ccccc4P(C)(C)=O)n3)ccc2[nH]1	8.00 to 9.00
Cc1cc(Nc2ncc(Cl)c(Nc3ccccc3P(C)(C)=O)n2)ccn1	< 6.00
CC(C)n1cc(-c2n[nH]c3ccc(Nc4ncc(Cl)c(Nc5ccccc5P(C)(C)=O)n4)cc23)cn1	8.00 to 9.00
CP(C)(=O)c1ccccc1Nc1nc(Nc2ccc3[nH]ccc3c2)ncc1Cl	8.00 to 9.00
Cc1cc(C)cc(Nc2ncc(Cl)c(Nc3ccccc3S(=O)(=O)C(C)C)n2)c1	6.00 to 7.00
CP(C)(=O)c1ccccc1Nc1nc(Nc2ccc3[nH]nc(-c4cccc(C#N)c4)c3c2)ncc1Cl	7.00 to 8.00
CP(C)(=O)c1ccccc1Nc1nc(Nc2ccc3[nH]nc(-c4ccc(OC(F)(F)F)cc4)c3c2)ncc1Cl	7.00 to 8.00
CP(C)(=O)c1ccccc1Nc1nc(Nc2ccc3[nH]nc(-c4ccc(C#N)cc4)c3c2)ncc1Cl	7.00 to 8.00
COc1cc2c(cc1Nc1ncc(Cl)c(Nc3ccccc3P(C)(C)=O)n1)CN(C(=O)C(F)(F)F)CC2	8.00 to 9.00
CP(C)(=O)c1ccccc1Nc1nc(Nc2cnc3[nH]ccc3c2)ncc1Cl	8.00 to 9.00
Cc1cccc2sc(Nc3ncc(Cl)c(Nc4ccccc4P(C)(C)=O)n3)nc12	< 6.00
CP(C)(=O)c1ccccc1Nc1nc(Nc2ccc3[nH]nc(C4=CCNCC4)c3c2)ncc1Cl	8.00 to 9.00
CP(C)(=O)c1ccccc1Nc1nc(Nc2ccc3c(c2)CN(C(=O)C(F)(F)F)CC3)ncc1Cl	8.00 to 9.00
CP(C)(=O)c1ccccc1Nc1nc(Nc2ccc3nc(S)sc3c2)ncc1Cl	7.00 to 8.00
CP(C)(=O)c1ccccc1Nc1nc(Nc2cccc3[nH]ccc23)ncc1Cl	8.00 to 9.00
CC1(C)CN(C(=O)C(F)(F)F)Cc2cc(Nc3ncc(Cl)c(Nc4ccccc4P(C)(C)=O)n3)ccc21	8.00 to 9.00
CP(C)(=O)c1ccccc1Nc1nc(Nc2ccc3[nH]nc(-c4ccc(CO)o4)c3c2)ncc1Cl	7.00 to 8.00
CP(C)(=O)c1ccccc1Nc1nc(Nc2ccc3[nH]nc(-c4ccc(S(C)(=O)=O)cc4)c3c2)ncc1Cl	7.00 to 8.00
CC(C)S(=O)(=O)c1ccccc1Nc1nc(Nc2cc(Cl)cc(Cl)c2)ncc1Cl	6.00 to 7.00
CP(C)(=O)c1ccccc1Nc1nc(Nc2cnc3ccccc3c2)ncc1Cl	7.00 to 8.00
CC(C)(C)OC(=O)N1CC=C(c2n[nH]c3ccc(Nc4ncc(Cl)c(Nc5ccccc5P(C)(C)=O)n4)cc23)CC1	8.00 to 9.00
CP(C)(=O)c1ccccc1Nc1nc(Nc2ccc3c(c2)CNCC3)ncc1Cl	8.00 to 9.00

* * *

Each entry below carries its reported Cell viability (% of Con. 10 μM) HepG2.
Tested on: HepG2 cancer cells
Assay: Anticancer activity, cell viability by CCK-8, HepG2
Format: cell-based
Settings: HepG2, 10 μM, 72 hours
Reported endpoint: Cell viability (% of Con. 10 μM) HepG2

CP(C)(=O)c1ccccc1Nc1nc(Nc2ccc3[nH]nc(-c4ccccc4)c3c2)ncc1Cl	15 % of Con.
CC(C)(C)OC(=O)N1CCN(c2ccc(-c3n[nH]c4ccc(Nc5ncc(Cl)c(Nc6ccccc6P(C)(C)=O)n5)cc34)cc2)CC1	68 % of Con.
CC1(C)NCCc2ccc(Nc3ncc(Cl)c(Nc4ccccc4P(C)(C)=O)n3)cc21	53 % of Con.
CP(C)(=O)c1ccccc1Nc1nc(Nc2ccc3c(c2)CN(C(=O)C(F)(F)F)CC3)ncc1Cl	26 % of Con.
CC(C)Oc1cc(F)cc(-c2n[nH]c3ccc(Nc4ncc(Cl)c(Nc5ccccc5P(C)(C)=O)n4)cc23)c1	50 % of Con.
CC1(C)CN(C(=O)C(F)(F)F)Cc2cc(Nc3ncc(Cl)c(Nc4ccccc4P(C)(C)=O)n3)ccc21	20 % of Con.
COc1cc(Cl)cc(-c2n[nH]c3ccc(Nc4ncc(Cl)c(Nc5ccccc5P(C)(C)=O)n4)cc23)c1	16 % of Con.
CP(C)(=O)c1ccccc1Nc1nc(Nc2ccc3[nH]nc(-c4ccc(OC(F)(F)F)cc4)c3c2)ncc1Cl	24 % of Con.
CP(C)(=O)c1ccccc1Nc1nc(Nc2ccc3[nH]nc(-c4cccc(C#N)c4)c3c2)ncc1Cl	32 % of Con.
CC1(C)CNCc2cc(Nc3ncc(Cl)c(Nc4ccccc4P(C)(C)=O)n3)ccc21	21 % of Con.
CP(C)(=O)c1ccccc1Nc1nc(N2CCc3c(N)cccc3C2)ncc1Cl	110 % of Con.
CS(=O)(=O)N1CCC(Nc2nc(Nc3ccnc4c(F)cccc34)ncc2F)CC1	73 % of Con.
CC(C)C1c2cc(Nc3ncc(F)c(NC4CCN(S(C)(=O)=O)CC4)n3)ccc2CCN1C(=O)C(F)(F)F (stereo not drawn)	83 % of Con.
CC1(C)c2cc(Nc3ncc(Cl)c(Nc4ccccc4P(C)(C)=O)n3)ccc2CCN1C(=O)C(F)(F)F	48 % of Con.
CP(C)(=O)c1ccccc1Nc1nc(Nc2ccncc2)ncc1Cl	116 % of Con.
